Test system: DeltatarO mutant
Assay: S. aureus survival, RN4220 and DeltatarO strains – OD600, teichoic acid synthesis inhibitors, primary screen (AID 463173)
Settings: S. aureus RN4220 wild type/DeltatarO growth, OD600, 18 h, active compounds read low, screened at 18.75 µg/mL (by protocol)
Among all 52,000 compounds or so, about 4,300 (8.3%) were called active. Only a selection was taken, and actives are over-represented in it overall.
Assign survival to each entry below.
Field format: number, assumed %, no unit text.

Qu. Which survival is reported for this compound? CCOc1ccc2c(c1)c(=O)c(S(=O)(=O)c1ccccc1)cn2CC(=O)Nc1ccccc1OC
Ans. 70

Qu. One more compound: Cc1ccc(NC(=O)CN2C=NS(=O)(=O)c3ccccc32)cc1
Ans. 76

Qu. One more compound: CCOC(=O)c1cnc2ccc(OC)cc2c1NCCc1ccccc1
Ans. -2

Qu. One more compound: O=C(Nc1ccc(F)c(F)c1)c1cc(S(=O)(=O)NC2CCCC2)ccc1F
Ans. 118

Qu. One more compound: Cc1c(C(=O)Nc2ccccc2F)sc2nc3n(c(=O)c12)CCC3
Ans. 87

Qu. One more compound: CCN(c1cc(C)cc(C)c1)S(=O)(=O)c1nnc(NC(=O)c2cccc(F)c2)s1
Ans. 37

Qu. One more compound: CCOC(=O)c1cnc2c(C)c(Cl)ccc2c1NCCc1ccccc1
Ans. -3

Qu. One more compound: Cc1ccc(CNC(=O)c2oc3ccc(S(=O)(=O)N4CCC(C)CC4)cc3c2C)cc1
Ans. 57

Qu. One more compound: CCCCOc1ccc(CNC(=O)C2COc3ccc(OC)cc3C2)cc1 (stereo unspecified)
Ans. 94

Qu. One more compound: CCOC(=O)Cc1c(C)nc2c(-c3ccc(Cl)cc3)c(C(F)(F)F)nn2c1C
Ans. 63

Qu. One more compound: CCCCN(C)C(=O)c1ccc2c(c1)N(Cc1ccc(F)cc1)C(=O)c1ccccc1S2(=O)=O
Ans. 118

Qu. One more compound: CCCCOC(=O)OC1CCS(=O)(=O)C1 (stereo unspecified)
Ans. 66

Qu. One more compound: CCCCc1c(C)nc2c(-c3ccc(OC)cc3)c(C)[nH]n2c1=O
Ans. 7

Qu. One more compound: CCc1ccc(-c2nc(CN3CCC(C(=O)NCCc4ccc(Cl)cc4)CC3)c(C)o2)cc1
Ans. 77

Qu. One more compound: O=C(CN1C(=O)C2(SCC(=O)N2c2ccccc2)c2ccccc21)NCCc1ccccc1 (stereo unspecified)
Ans. 116

Qu. One more compound: CN(c1ccccc1)S(=O)(=O)c1nnc(NC(=O)c2cccs2)s1
Ans. 43

Qu. One more compound: COc1ccc(Cn2c(=O)c3oc4ccccc4c3n(Cc3ccccc3)c2=O)cc1
Ans. 82

Qu. One more compound: Cc1cccc(N(C)S(=O)(=O)c2nnc(NC(=O)c3cccs3)s2)c1
Ans. 26

Qu. One more compound: Cc1cccc(N(C)S(=O)(=O)c2nnc(NC(=O)C(C)(C)C)s2)c1
Ans. 99

Qu. One more compound: CCOC(=O)c1ccc(NC(=O)c2cnn(-c3ccc(C)cc3C)c2C2CCN(C(=O)OC(C)(C)C)CC2)cc1
Ans. 93

Qu. One more compound: CCN(c1ccccc1)S(=O)(=O)c1nnc(NC(=O)COc2cccc(C)c2)s1
Ans. 107

Qu. One more compound: CCOC(=O)c1cnc2ccc(OCC)cc2c1NCCc1ccc(OC)c(OC)c1
Ans. 116

Qu. One more compound: Cc1ccc(C)c(NC(=O)C2CCN(c3nn4c(=O)cc(C)nc4s3)CC2)c1
Ans. 106

Qu. One more compound: CCOC(=O)c1cnc2ccccc2c1NCCc1ccc(OC)c(OC)c1
Ans. 33

Qu. One more compound: O=C1C2C3C=CC(C3)C2C(=O)N1c1ccc(-c2nc3ccccc3o2)cc1 (stereo unspecified)
Ans. 89

Qu. One more compound: CCOC(=O)c1ccc2ncc(C(=O)OCC)c(NCCc3ccc(OC)c(OC)c3)c2c1
Ans. 53

Qu. One more compound: CCOC(=O)c1cnc2ccc(C)cc2c1NCCc1ccc(OC)c(OC)c1
Ans. 136

Qu. One more compound: CCOC(=O)c1c(S(=O)(=O)N2CCCC(C(=O)Nc3ccc(OCC)cc3)C2)c(C)n(C)c1C (stereo unspecified)
Ans. 99

Qu. One more compound: CCC1(c2ccccc2)NC(=O)NC1=O (stereo unspecified)
Ans. 98

Qu. One more compound: COC(=O)Cn1nc(C)c2c(C)n(-c3ccccc3)nc2c1=O
Ans. 90

Qu. One more compound: CCCCOc1ccccc1C(=O)N(Cc1cccc(F)c1)C1CCS(=O)(=O)C1 (stereo unspecified)
Ans. 75

Qu. One more compound: Cc1nc2c(-c3ccc(F)cc3)c(C)nn2c(C)c1CCC(=O)NCc1ccc(Cl)cc1
Ans. 96

Qu. One more compound: CCCCc1c(C)nc2c(-c3ccc(Cl)cc3)c(C)[nH]n2c1=O
Ans. -2

Qu. One more compound: Cc1ccc(Cl)cc1N1CCN(C(=O)C2CCN(S(=O)(=O)c3c(C)noc3/C=C/c3ccccc3F)CC2)CC1
Ans. 72

Qu. One more compound: Cc1ccc(C)c(NC(=O)c2cnc(N3CCCC3)nc2C)c1
Ans. 94

Qu. One more compound: CCN1CCN(CCCNC(=O)Cn2c(-c3cccs3)cc3ccccc32)CC1
Ans. 78

Qu. One more compound: CCN(c1cc(C)cc(C)c1)S(=O)(=O)c1nnc(NC(=O)c2cccs2)s1
Ans. 25

Qu. One more compound: O=C(Nc1ccc2c(c1)CCC2)C1CCN(c2ccc(S(=O)(=O)N3CCCC3)cc2)CC1
Ans. 103

Qu. One more compound: CCCCc1nn2c(=O)cc(COC(=O)c3ccccc3NC(=O)c3ccccc3OC)nc2s1
Ans. 84

Qu. One more compound: CCN(c1cccc(C)c1)S(=O)(=O)c1nnc(NC(=O)C2CCCCC2)s1
Ans. 71

Qu. One more compound: CCN(c1cccc(C)c1)S(=O)(=O)c1nnc(NC(=O)c2cccs2)s1
Ans. 21

###

Tested on: DeltatarO mutant
Experiment: S. aureus survival, RN4220 and DeltatarO strains – OD600, teichoic acid synthesis inhibitors, primary screen (AID 463173)
Conditions: S. aureus RN4220 wild type/DeltatarO growth, OD600, 18 h, active compounds read low, screened at 18.75 µg/mL (by protocol)
About 4,300 (8.3%) of roughly 52,000 compounds were called active. The entries come from a sample that favours actives as a whole.
MEASUREMENT KIND: survival (%)
Field format: number, assumed %, no unit text.

Qu. Which survival is reported for this molecule? Cc1cc(C)c2oc(-c3cccc(NC(=O)c4cc5ccccc5o4)c3)nc2c1
Ans. 36

Qu. One more molecule: CC1=C(C(=O)Nc2c(C)cc(C)cc2C)C2(CCN(C(C)C)CC2)OC1=O
Ans. 112

Qu. One more molecule: COc1ccc2[nH]c(=O)c(CN(CCO)S(=O)(=O)c3ccc(Cl)c(C(F)(F)F)c3)cc2c1
Ans. 98

Qu. One more molecule: CCCC(=O)N(c1ccc2oc3c(c2c1)CCCC3)S(=O)(=O)c1ccc(CC)cc1
Ans. 39

Qu. One more molecule: CSCCC(NS(=O)(=O)c1ccc2c(c1)oc(=O)n2C)C(=O)Nc1ccc(Cl)cc1 (stereo not given)
Ans. 94

Qu. One more molecule: Cc1cc(N2CCN(c3cccc(C)c3C)CC2)n2cnnc2n1
Ans. 99

Qu. One more molecule: CC(NC(=O)c1ccc(Cn2c(=O)c3cccn3c3cccnc32)cc1)c1ccccc1 (stereo not given)
Ans. 101

Qu. One more molecule: Cc1cc(C)c2oc(-c3cccc(NC(=O)c4ccc(-c5cccc([N+](=O)[O-])c5)o4)c3)nc2c1
Ans. 75

Qu. One more molecule: CC(C)NC(=O)c1ccc(Cn2c(=O)c3cccn3c3cccnc32)cc1
Ans. 44

Qu. One more molecule: CC(CNC(=O)c1ccc(Cn2c(=O)c3cccn3c3cccnc32)cc1)c1ccccc1 (stereo not given)
Ans. 41

Qu. One more molecule: CCCCC(=O)N(c1ccc2oc(C)c(C(C)=O)c2c1)S(=O)(=O)c1ccc(F)cc1C
Ans. 62

Qu. One more molecule: CCOC(=O)c1cnc2cc(-c3ccc(C)cc3)nn2c1C
Ans. 74

Qu. One more molecule: O=C(Nc1ccccc1C(=O)OCc1cc(=O)n2c3c(sc2n1)CCCC3)c1ccc(Cl)cc1
Ans. 0

Qu. One more molecule: COc1ccccc1NC(=O)C1=C(C)Nc2ncnn2C1c1ccccn1 (stereo not given)
Ans. 52

Qu. One more molecule: Cc1ccc2nc(-c3cccc(NC(=O)c4ccc(Br)o4)c3)oc2c1
Ans. 15

Qu. One more molecule: COc1ccc(-n2nc3ccc(NC(=O)c4c(OC)cccc4OC)cc3n2)cc1
Ans. 135

Qu. One more molecule: Cc1ccccc1C(=O)Nc1ccc(C(=O)OCc2cc(=O)n3c4c(sc3n2)CCCC4)cc1
Ans. 118

Qu. One more molecule: Cc1ccc2oc(C(=O)Nc3cccc(-c4nc5ccccc5s4)c3)c(C)c2c1
Ans. 55

Qu. One more molecule: CC(C)CCNC(=O)c1ccc(Cn2c(=O)c3cccn3c3cccnc32)cc1
Ans. 64

Qu. One more molecule: CN1CCN(C(c2ccc(F)cc2)c2sc3nc(-c4ccco4)nn3c2O)CC1 (stereo not given)
Ans. 79

Qu. One more molecule: CCCC(=O)N(c1ccc2oc(-c3ccccc3)c(C(=O)OCC)c2c1)S(=O)(=O)c1ccc(C)cc1
Ans. 140

Qu. One more molecule: COc1ccccc1C(=O)Nc1cccc(C(=O)OCc2cc(=O)n3c4c(sc3n2)CCCC4)c1
Ans. 92

Qu. One more molecule: Cc1cc(C)c2oc(-c3cccc(NC(=O)c4ccco4)c3)nc2c1
Ans. 87

Qu. One more molecule: Cc1ccc(C(=O)Nc2ccc(C(=O)OCc3cc(=O)n4c5c(sc4n3)CCCC5)cc2)cc1
Ans. 83

Qu. One more molecule: COc1cccc(C(C(=O)NCc2ccco2)N(C(=O)Cn2nnc3ccccc32)C2CC2)c1OC (stereo not given)
Ans. 107

Qu. One more molecule: Cc1ccc(CCNc2ncnc3onc(-c4ccc(F)cc4)c23)cc1
Ans. 83

Qu. One more molecule: COc1ccccc1C(=O)Nc1ccc(C(=O)OCc2cc(=O)n3c4c(sc3n2)CCCC4)cc1
Ans. 37

Qu. One more molecule: Cc1ccc(CN2CCC(CNc3ncnc4onc(-c5ccc(F)cc5)c34)CC2)cc1
Ans. -2

Qu. One more molecule: Cc1c(C(=O)Nc2ccncc2)oc2ccccc12
Ans. 98

Qu. One more molecule: CC(C)(C)c1ccc(-c2nc3cc(NC(=O)c4cc5ccccc5o4)ccc3o2)cc1
Ans. 71

Qu. One more molecule: Cc1cccc(C)c1OCc1cc(=O)n2c3c(sc2n1)CCCC3
Ans. -17

Qu. One more molecule: Cc1ccc(-n2nc3ccc(NC(=O)c4oc5ccccc5c4C)cc3n2)cc1
Ans. 31

Qu. One more molecule: Cc1ccccc1C(=O)Nc1cccc(C(=O)OCc2cc(=O)n3c4c(sc3n2)CCCC4)c1
Ans. 46

Qu. One more molecule: CCCC(=O)N(c1ccc2oc3c(c2c1)CCCC3)S(=O)(=O)c1cc(C)ccc1C
Ans. 35

Qu. One more molecule: CN(C(=O)CSc1nc2ccc(NC(=O)CCc3ccccc3)cc2s1)c1ccccc1
Ans. 73

Qu. One more molecule: COc1ccc(OC)c(NC(=O)CSC2=Nc3ccccc3C3=NC(CC(=O)NCc4ccco4)C(=O)N23)c1 (stereo not given)
Ans. 99

Qu. One more molecule: Cc1ccc(CO)cc1Nc1ncnc2onc(-c3ccc(F)cc3)c12
Ans. 46

Qu. One more molecule: CCOC(=O)c1c(-c2ccccc2)oc2ccc(N(C(C)=O)S(=O)(=O)c3cc(C)ccc3C)cc12
Ans. 54

Qu. One more molecule: COc1ccccc1NC(=O)C1=C(C)Nc2ncnn2C1c1cccn1C (stereo not given)
Ans. 8

Qu. One more molecule: Cc1cc(C)c2oc(-c3cccc(NC(=O)c4ccc(Br)o4)c3)nc2c1
Ans. 34
